- ASSAYED TARGET: Receptor tyrosine-protein kinase erbB-2 (Homo sapiens) (UniProt P04626)
- Sequence (P04626 whole entry, looked up): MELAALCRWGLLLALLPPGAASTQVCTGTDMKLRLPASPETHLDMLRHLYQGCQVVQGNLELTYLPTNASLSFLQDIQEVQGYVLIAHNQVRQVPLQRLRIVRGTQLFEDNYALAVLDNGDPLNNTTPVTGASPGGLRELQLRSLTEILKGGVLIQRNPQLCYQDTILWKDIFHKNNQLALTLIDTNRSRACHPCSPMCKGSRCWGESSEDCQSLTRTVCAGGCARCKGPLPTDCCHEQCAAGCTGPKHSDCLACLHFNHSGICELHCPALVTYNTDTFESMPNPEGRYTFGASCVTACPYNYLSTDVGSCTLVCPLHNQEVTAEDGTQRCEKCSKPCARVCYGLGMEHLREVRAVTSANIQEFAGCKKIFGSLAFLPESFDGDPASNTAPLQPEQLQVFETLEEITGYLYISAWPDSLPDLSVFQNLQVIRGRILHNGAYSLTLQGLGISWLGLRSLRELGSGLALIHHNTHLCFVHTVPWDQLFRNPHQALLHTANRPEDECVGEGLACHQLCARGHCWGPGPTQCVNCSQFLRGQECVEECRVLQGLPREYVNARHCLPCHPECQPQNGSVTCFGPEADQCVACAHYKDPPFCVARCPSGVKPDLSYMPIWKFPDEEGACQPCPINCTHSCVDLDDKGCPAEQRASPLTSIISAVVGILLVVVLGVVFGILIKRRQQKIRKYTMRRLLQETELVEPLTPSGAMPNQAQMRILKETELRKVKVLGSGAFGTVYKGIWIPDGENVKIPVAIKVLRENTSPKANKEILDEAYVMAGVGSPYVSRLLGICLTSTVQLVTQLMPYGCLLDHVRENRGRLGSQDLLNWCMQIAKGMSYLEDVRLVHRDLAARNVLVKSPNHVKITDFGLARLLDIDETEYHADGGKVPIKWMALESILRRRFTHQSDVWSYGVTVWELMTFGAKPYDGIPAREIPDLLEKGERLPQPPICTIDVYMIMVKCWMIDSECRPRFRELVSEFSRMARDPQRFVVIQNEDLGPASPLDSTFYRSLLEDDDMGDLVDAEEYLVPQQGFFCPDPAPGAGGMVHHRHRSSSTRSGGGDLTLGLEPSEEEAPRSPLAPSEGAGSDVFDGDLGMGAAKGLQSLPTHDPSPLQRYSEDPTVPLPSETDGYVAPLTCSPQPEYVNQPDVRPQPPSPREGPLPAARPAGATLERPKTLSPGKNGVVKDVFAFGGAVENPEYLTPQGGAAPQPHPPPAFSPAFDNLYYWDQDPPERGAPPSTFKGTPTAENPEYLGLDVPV
- PROTOCOL NOTES: reducers of endogenous Her2 protein level, primary screen, SKBR3 breast tumor cells, AlphaScreen, ATP viability (AID 461);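 also: lower value means less Her2 protein in the cells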
- COND: 18-24 h, at 10 µM, stronger effect = lower value
MEASURE NAME: Her2 level (%)

>>> measured_number("O=C(OCC#CCSc1nc2ccccc2o1)c1ccco1")
84
>>> measured_number("CCc1cc2c(CN3CCN(CCO)CC3)cc(=O)oc2cc1O")
97
>>> measured_number("CCOc1ccc(NC(=O)CN(C)S(=O)(=O)c2cccs2)cc1")
100
>>> measured_number("COc1cc(CC(=O)NCc2ccc3c(c2)OCO3)cc(OC)c1OC")
78.5
>>> measured_number("c1nnc(NC2=NCCCCC2)s1")
112

###

As shown below, each of these molecules has a reported Her2 level value.
- ASSAYED TARGET: Receptor tyrosine-protein kinase erbB-2 (Homo sapiens) (UniProt P04626)
- PROTOCOL NOTES: reducers of endogenous Her2 protein level, primary screen, SKBR3 breast tumor cells, AlphaScreen, ATP viability (AID 461);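 also: lower value means less Her2 protein in the cells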
- COND: 18-24 h, at 10 µM, stronger effect = lower value
MEASURE NAME: Her2 level (%)

>>> measured_number("O=C(CN(Cc1ccc2c(c1)OCO2)C(=O)CNS(=O)(=O)c1ccccc1)NCc1ccco1")
86.5
>>> measured_number("COC(=O)c1cccc(NC(=O)CSc2nnc(COc3ccc(C#N)cc3)n2-c2ccccc2)c1")
112
>>> measured_number("CN(C)C(=O)CN(c1ccc(F)c(Cl)c1)S(C)(=O)=O")
111
>>> measured_number("CCCC(=O)N=C1SC2CS(=O)(=O)CC2N1c1ccc(CC)cc1 (stereo not given)")
80
>>> measured_number("CCN(CC)CCN1C(=O)C(O)=C(C(=O)c2ccco2)C1c1ccccn1 (stereo not given)")
93
>>> measured_number("Cc1sc2ncn3ncnc3c2c1C")
96.5
>>> measured_number("COc1ccccc1CNC(=O)CCNC(=O)Cn1ccc2ccccc2c1=O")
92
>>> measured_number("CCC(C)n1[nH]c(=O)c2c(C)cc(C)nc21 (stereo not given)")
91.5
>>> measured_number("Cc1cc(C)nc(N2CCCC(C(=O)Nc3ccc4c(c3)OCO4)C2)n1 (stereo not given)")
104
>>> measured_number("O=C(Nc1ccc2c(c1)OCCO2)c1ccco1")
106
>>> measured_number("Cc1nn(S(=O)(=O)N2CCCCC2)c(C)c1Br")
130
>>> measured_number("COC(=O)[C@H](C)NC(=O)NCc1ccc(F)cc1")
95
>>> measured_number("CCOc1ccc(-n2cc(C(=O)N3CCN(C)CC3)c3cc(OC)c(OC)cc3c2=O)cc1")
104
>>> measured_number("O=C1CC(N2CCOCC2)C(=O)N1c1ccccc1Cl (stereo not given)")
87.5
>>> measured_number("O=C(OCc1nnc(-c2ccc(Cl)cc2)o1)c1ccc(=O)n(Cc2ccccc2)n1")
84.5
>>> measured_number("O=C(Nc1nc2c(s1)CCc1ccccc1-2)c1cccs1")
74
>>> measured_number("COc1cc2c(=O)n(Cc3ccccc3)c(=O)n(CC(=O)NCc3ccco3)c2cc1OC")
83
>>> measured_number("CC1=C(C(=O)N2CCCCC2)C2(CCC(C)CC2)OC1=O (stereo not given)")
102
>>> measured_number("Cn1nnnc1SCC(=O)NCc1ccco1")
110
>>> measured_number("CC1Cc2cc(/C(O)=C3/C(=O)C(=O)N(CCN4CCOCC4)C3c3cccc(O)c3)ccc2O1 (stereo not given)")
120
>>> measured_number("CCOC(=O)c1ccc(NC(=O)CCc2c(C)nc3ncnn3c2C)cc1")
95.5
>>> measured_number("CC1CCCCC1NC(=O)C1CCN(C(=O)NC2CCCCC2)CC1 (stereo not given)")
108
>>> measured_number("CC(=O)N1CCc2cc(S(=O)(=O)NC(CC(C)C)C(=O)N3CCn4c3nc3ccccc34)ccc21 (stereo not given)")
87.5
>>> measured_number("O=c1oc2ccccc2n1CCn1c2ccccc2c2nc3ccccc3nc21")
96
>>> measured_number("CC1(C)CC(=O)C(C=Nc2ccc3c(c2)OCO3)=C(O)C1")
113
>>> measured_number("O=C(COc1nnnc2ccccc12)N1CCCc2ccccc21")
87
>>> measured_number("Cc1ccc(Cn2ncc3c(NCCCN4CCOCC4)ncnc32)cc1")
92.5
>>> measured_number("CC1Cc2ccccc2N1C(=O)CSc1nnc2n1C(C)(C)Cc1ccccc1-2 (stereo not given)")
105
>>> measured_number("O=C(CSc1nnc(CNC(=O)c2cccs2)o1)NC1CCCC1")
100
>>> measured_number("CC1CCN(C(=O)CCNS(=O)(=O)c2ccccc2)CC1")
118
>>> measured_number("Cc1noc(C)c1S(=O)(=O)NCCN1CCN(c2ccccc2)CC1")
98.5
>>> measured_number("CN(C)c1nc(SCCOC(=O)c2ccccc2)nc(N(C)C)n1")
80.5
>>> measured_number("CCCOC(=O)C1[C@H]2C(=O)N(CCCOC)C[C@]23C=C[C@H]1O3 (stereo not given in full)")
85
>>> measured_number("Cc1ccc(NC(=O)CSc2nnc(NC(=O)CN3CCOCC3)s2)cc1")
82
>>> measured_number("CC(C)CCNC(=O)C(c1cccs1)N(CC1CCCO1)C(=O)Cn1nnc2ccccc21 (stereo not given)")
112
>>> measured_number("CCC(C)NC(=O)C1(C)CCC(=O)N1Cc1ccccc1OC (stereo not given)")
95
>>> measured_number("Cc1nc(/N=C(\\N)Nc2ccccc2)nc2ccccc12")
67.5
>>> measured_number("[O-][n+]1c2ccc3nonc3c2nn1-c1ccccc1Cl")
124
>>> measured_number("CCn1c(=O)c(C(=O)NCc2ccc(OC)cc2)c(O)c2ccccc21")
89.5
>>> measured_number("O=C(Cn1ccc2ccccc2c1=O)Nc1ccc2c(c1)OCO2")
95.5

###

As shown below, each of these compounds has a reported viability value.
- PROTOCOL NOTES: reversal of MRP1-mediated doxorubicin resistance, pilot screen, H69AR cells, doxorubicin co-treatment (AID 601)
- COND: H69AR cells, CellTiter-Glo, 72 h; compound alone cytotoxicity; at 10 µM
MEASURE NAME: viability

>>> result("O=C(c1ccco1)N1CCN(C(=O)c2cc3c(s2)-c2ccccc2OC3)CC1")
"97%"
>>> result("CC(C)OC(=O)C(CC(=O)O)NCc1ccccc1 (configuration not stated)")
"91.6%"
>>> result("Cn1c(=O)n(C)c2cc(CNc3ccc(N4CCOCC4)c(C(=O)O)c3)ccc21")
"89.6%"
>>> result("CCCC(C(=O)NCc1ccco1)N(C(=O)CNS(=O)(=O)c1ccc(Cl)cc1)C1CCCC1 (configuration not stated)")
"82.7%"
>>> result("O=C(OCC#CCSc1nnc(-c2ccncc2)o1)c1cccs1")
"82%"
>>> result("CCCCn1c(NCCC)nc2c1c(=O)[nH]c(=O)n2C")
"93.7%"
>>> result("COc1ccc(S(=O)(=O)Nc2ccc(F)c(F)c2)cc1Cl")
"90.2%"
>>> result("O=C(NCCc1ccccc1)C1CCN(S(=O)(=O)N2CCC3(CC2)OCCO3)CC1")
"99.3%"
>>> result("CC(=O)Nc1ccc(OC(=O)c2cccs2)cc1")
"87%"
>>> result("CCOC(=O)c1cnc(-n2nc(C)cc2C)nc1Nc1cccc(C(C)=O)c1")
"88%"
>>> result("CC1CC(C)CN(CCCNC(=O)COc2cc(=O)n(C)c3ccccc23)C1 (configuration not stated)")
"90.7%"
>>> result("CC(C)(O)C1=NOC(c2ccccc2)C1 (configuration not stated)")
"71.1%"
>>> result("O=C(CCc1nc2ccccc2s1)OCC(=O)N1CCN(C(=O)c2ccco2)CC1")
"90.5%"
>>> result("CCOC(=O)CSc1nc2ccccc2c(=O)n1CCN1CCOCC1")
"95.4%"
>>> result("CS(=O)(=O)N(CC(=O)Nc1ccc2c(c1)OCCO2)Cc1ccccc1")
"99.5%"
>>> result("COc1ccc(CN(CC(=O)NCc2ccco2)C(=O)CCC(=O)Nc2nccs2)cc1")
"101%"
>>> result("CCCNC(=O)Nc1ccccc1C(=O)Nc1ccc(OC)cc1")
"94.6%"

###

- PROTOCOL NOTES: growth suppression of yeast trafficking mutant, preliminary HTS, modulators of trafficking downstream of Golgi apparatus project, 1536-format plate, OD 615 nm (AID 637)
- COND: yeast transport mutant growth, absorbance 615 nm, 18 h; stronger effect = higher value
MEASURE NAME: inhibition (%)

>>> measured_number("CCOC(=O)N1CCN(C(=O)COc2ccc(Br)cc2Cl)CC1")
-5.33
>>> measured_number("Cc1cc2ncc(C(=O)Nc3ccccc3)c(C)n2n1")
-0.48
>>> measured_number("COC(=O)Nc1ccccc1C(=O)N1CCCCC1")
-0.49
>>> measured_number("Cc1ncoc1C(=O)Nc1ccccc1C(N)=O")
-1
>>> measured_number("COc1ccc(CN(CC(=O)NCC2CCCO2)C(=O)CNS(=O)(=O)c2ccc(C)cc2)cc1 (stereo not drawn)")
-6.23
>>> measured_number("COCCn1c(SCC(=O)N(C(C)C)C(C)C)nnc1-c1cc2ccccc2cc1O")
-5.5
>>> measured_number("O=C(CC1CCS(=O)(=O)C1)Nc1ccc[nH]c1=O (stereo not drawn)")
-8
>>> measured_number("Cc1cc(NC(=O)Cn2cnc3c2c(=O)n(C)c(=O)n3C)n(-c2ccccc2)n1")
0.83
